Values were extracted from paper PMC12474366.

Assay: Residues of PRO and ALL in laying hens' tissues and eggs after 56-day dietary Bopu Powder (LC-QQQ-MS)
Conditions: female, Roman Gray, chicken (laying hens), in vivo, 500 mg/kg, residues in kidney, BPX group: 500 mg/kg Bopu Powder in diet, mean ± sd, n = 6, LOD 1 ng/g wet weight
ENDPOINT: concentration at 56 days (ng/g)
# value in ng/g; strip the unit string

Per the records, this compound ( COc1ccc2c(c1OC)CN(C)CCc1cc3c(cc1C(=O)C2)OCO3 [ALL, allocryptopine] ) has concentration at 56 days equal to 7.92

---

Experiment: Residues of PRO and ALL in laying hens' tissues and eggs after 56-day dietary Bopu Powder (LC-QQQ-MS)
Details: female, Roman Gray, chicken (laying hens), in vivo, 500 mg/kg, residues in liver, BPX group: 500 mg/kg Bopu Powder in diet, mean ± sd, n = 6, LOD 1 ng/g wet weight
ENDPOINT: concentration at 56 days (ng/g)
Please state the figure in ng/g; there is no need to write the unit.

concentration at 56 days recorded for this molecule, COc1ccc2c(c1OC)CN(C)CCc1cc3c(cc1C(=O)C2)OCO3 [ALL, allocryptopine] , is 56.1
